The measurements presented in this section are drawn from paper PMC5540273.

test system: CSNK1A1; conditions: concentration: 1 μM, replicates: in singlicate; n = 1
Measured %Inh accompanies every entry in the list below.
Give the quantity in %, number only.

compound | %Inh (%)
COC(=O)C(Cc1ccccc1)NC(=O)NC1CCN(c2ccnc(Nc3ccc(F)cc3)n2)C1 (stereo not shown) [GSK1379714] | 5
NS(=O)(=O)c1cccc(N/C=C2\C(=O)Nc3ccc(S(=O)(=O)Cc4c(Cl)cccc4Cl)cc32)c1 [GSK398099] | 0
CN1c2ccc(-c3ccc(C(N)=O)cc3)cc2-c2[nH]ncc2S1(=O)=O | 3

# next compound below
Please tell me: %Inh of CCCCc1nn2ncccc2c1-c1ccnc(NC2CC2)n1 [GW684374] , system CSNK1A1?;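 also: KINOMEscan kinase panel screen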
18
